Can you tell me binding signal for the items I'm about to list?
# TESTED SYSTEM: MBP-FoxP1dN (Mus musculus, UniProt P58462 326-579)
# Sequence: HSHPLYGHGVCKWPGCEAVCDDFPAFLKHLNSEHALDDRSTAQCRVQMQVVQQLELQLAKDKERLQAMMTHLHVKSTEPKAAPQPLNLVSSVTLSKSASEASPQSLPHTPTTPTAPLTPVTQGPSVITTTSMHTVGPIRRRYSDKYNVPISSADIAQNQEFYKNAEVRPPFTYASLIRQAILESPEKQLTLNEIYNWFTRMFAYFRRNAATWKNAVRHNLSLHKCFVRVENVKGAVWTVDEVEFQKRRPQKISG
# EXPERIMENT: PD-seq (MBP pull-down with sequencing); 20 mM Tris-HCl pH 7.5, 100 mM NaCl, 1.5 mM MgCl2, 0.4 uM protein, 0.1 uM dsDNA library, 30 min, room temperature, amylose pull-down; high values mean tight binding
# CONDITION SUMMARY: protein: recombinant; tags: His6-MBP; chain copies: 2; dsDNA, one strand shown
Over roughly 16,000 sequences, “rpm ratio (pull-down/input)” has its median near 0.94; the highest 2% begin near 1.7. The sample holds the highest values, similar sequences and a random draw of the others, so the mix is not that of the screen.

Briefly, binding signal measured for GATGATTGTTCTCCCAGCTGATGAATTTGTGATTTCGAGTAAACAAATTTTCCTAATCTTTCTGTTCAAGCGCCATCTAC : 1.41 RPM ratio (pull-down/input)

Briefly, binding signal measured for GATGATTGTTCTCCCAGCTGATGAATTGATATTTTCGAGTAAACAAATTTTCCTAATCTTTCTGTTCAAGCGCCATCTAC : 2.4 RPM ratio (pull-down/input)

Briefly, binding signal measured for GATGATTGTTCTCCCAGCTGATGAATTGTGTGTTTCGAGTAAACAAATTTTCCTAATCTTTCTGTTCAAGCGCCATCTAC : 1.57 RPM ratio (pull-down/input)

Briefly, binding signal measured for GATGATTGTTCTCCCAGCTGATGAATTCAGAAACTCGAGTAAACAAATTTTCCTAATCTTTCTGTTCAAGCGCCATCTAC : 0.844 RPM ratio (pull-down/input)

Briefly, binding signal measured for GATGATTGTTCTCCCAGCTGATGAATTTGGGTAATCGAGTAAACAAATTTTCCTAATCTTTCTGTTCAAGCGCCATCTAC : 1.27 RPM ratio (pull-down/input)

Briefly, binding signal measured for GATGATTGTTCTCCCAGCTGATGAATTAACATCGTCGAGTAAACAAATTTTCCTAATCTTTCTGTTCAAGCGCCATCTAC : 0.998 RPM ratio (pull-down/input)

Briefly, binding signal measured for GATGATTGTTCTCCCAGCTGATGAATTAATGCCGTCGAGTAAACAAATTTTCCTAATCTTTCTGTTCAAGCGCCATCTAC : 1.11 RPM ratio (pull-down/input)

Briefly, binding signal measured for GATGATTGTTCTCCCAGCTGATGAATTGTGAAGCTCGAGTAAACAAATTTTCCTAATCTTTCTGTTCAAGCGCCATCTAC : 0.905 RPM ratio (pull-down/input)

Briefly, binding signal measured for GATGATTGTTCTCCCAGCTGATGAATTAAAACATTCGAGTAAACAAATTTTCCTAATCTTTCTGTTCAAGCGCCATCTAC : 1.4 RPM ratio (pull-down/input)

Briefly, binding signal measured for GATGATTGTTCTCCCAGCTGATGAATTTGGCGTCTCGAGTAAACAAATTTTCCTAATCTTTCTGTTCAAGCGCCATCTAC : 0.85 RPM ratio (pull-down/input)

Briefly, binding signal measured for GATGATTGTTCTCCCAGCTGATGAATTATTTGTGTCGAGTAAACAAATTTTCCTAATCTTTCTGTTCAAGCGCCATCTAC : 2.12 RPM ratio (pull-down/input)

Briefly, binding signal measured for GATGATTGTTCTCCCAGCTGATGAATTACACGCGTCGAGTAAACAAATTTTCCTAATCTTTCTGTTCAAGCGCCATCTAC : 1.18 RPM ratio (pull-down/input)

Briefly, binding signal measured for GATGATTGTTCTCCCAGCTGATGAATTTTCCCTATCGAGTAAACAAATTTTCCTAATCTTTCTGTTCAAGCGCCATCTAC : 0.937 RPM ratio (pull-down/input)

Briefly, binding signal measured for GATGATTGTTCTCCCAGCTGATGAATTCAAGCTCTCGAGTAAACAAATTTTCCTAATCTTTCTGTTCAAGCGCCATCTAC : 0.854 RPM ratio (pull-down/input)

Briefly, binding signal measured for GATGATTGTTCTCCCAGCTGATGAATTATATATATCGAGTAAACAAATTTTCCTAATCTTTCTGTTCAAGCGCCATCTAC : 1.16 RPM ratio (pull-down/input)

Briefly, binding signal measured for GATGATTGTTCTCCCAGCTGATGAATTAGCCGTTTCGAGTAAACAAATTTTCCTAATCTTTCTGTTCAAGCGCCATCTAC : 0.852 RPM ratio (pull-down/input)

Briefly, binding signal measured for GATGATTGTTCTCCCAGCTGATGAATTCTTTATATCGAGTAAACAAATTTTCCTAATCTTTCTGTTCAAGCGCCATCTAC : 1.02 RPM ratio (pull-down/input)

Briefly, binding signal measured for GATGATTGTTCTCCCAGCTGATGAATTAGAAGCTTCGAGTAAACAAATTTTCCTAATCTTTCTGTTCAAGCGCCATCTAC : 0.996 RPM ratio (pull-down/input)

Briefly, binding signal measured for GATGATTGTTCTCCCAGCTGATGAATTTGGGCCATCGAGTAAACAAATTTTCCTAATCTTTCTGTTCAAGCGCCATCTAC : 0.878 RPM ratio (pull-down/input)

Briefly, binding signal measured for GATGATTGTTCTCCCAGCTGATGAATTATAAACATCGAGTAAACAAATTTTCCTAATCTTTCTGTTCAAGCGCCATCTAC : 2.42 RPM ratio (pull-down/input)

Briefly, binding signal measured for GATGATTGTTCTCCCAGCTGATGAATTATGTGTGTCGAGTAAACAAATTTTCCTAATCTTTCTGTTCAAGCGCCATCTAC : 1.4 RPM ratio (pull-down/input)

Briefly, binding signal measured for GATGATTGTTCTCCCAGCTGATGAATTGGCTATGTCGAGTAAACAAATTTTCCTAATCTTTCTGTTCAAGCGCCATCTAC : 0.854 RPM ratio (pull-down/input)

Briefly, binding signal measured for GATGATTGTTCTCCCAGCTGATGAATTTGTGTGTTCGAGTAAACAAATTTTCCTAATCTTTCTGTTCAAGCGCCATCTAC : 1.59 RPM ratio (pull-down/input)

Briefly, binding signal measured for GATGATTGTTCTCCCAGCTGATGAATTTGTGTTCTCGAGTAAACAAATTTTCCTAATCTTTCTGTTCAAGCGCCATCTAC : 1.48 RPM ratio (pull-down/input)

Briefly, binding signal measured for GATGATTGTTCTCCCAGCTGATGAATTATAGACATCGAGTAAACAAATTTTCCTAATCTTTCTGTTCAAGCGCCATCTAC : 1.21 RPM ratio (pull-down/input)

Briefly, binding signal measured for GATGATTGTTCTCCCAGCTGATGAATTCCATGTGTCGAGTAAACAAATTTTCCTAATCTTTCTGTTCAAGCGCCATCTAC : 0.939 RPM ratio (pull-down/input)

Briefly, binding signal measured for GATGATTGTTCTCCCAGCTGATGAATTAGACGGGTCGAGTAAACAAATTTTCCTAATCTTTCTGTTCAAGCGCCATCTAC : 0.832 RPM ratio (pull-down/input)

Briefly, binding signal measured for GATGATTGTTCTCCCAGCTGATGAATTGAATCTGTCGAGTAAACAAATTTTCCTAATCTTTCTGTTCAAGCGCCATCTAC : 0.897 RPM ratio (pull-down/input)

Briefly, binding signal measured for GATGATTGTTCTCCCAGCTGATGAATTCGAATCTTCGAGTAAACAAATTTTCCTAATCTTTCTGTTCAAGCGCCATCTAC : 0.84 RPM ratio (pull-down/input)
